- assay.procedure: yeast display, Sf9 membrane polyspecificity reagent, FACS + sequencing; frameworks hold sequencing errors
value.kind: polyreactivity (PSR sort gate)

Example results:
sequence=QVQLVESGGGLVQAGGSLRLSCAASGRTLGIYAMGWYIQAPGKERELVADISRDSSTYYADSVKGRFTISRDNAKNTVYLQMNSLKPEDTAVYYCNADQTPRDVTDWWYDYDYWGQGTQVTVSS obs_value="low polyreactivity"
sequence=QVQLVESGGGLVQAGGTLRLSCAASGSTFKYYAMGWYRQAPGKEREFVASINWSGVSTYYADSVKGRFTISRDNAKNTVYLQMNSLKPEDTAVYYCAARVRGKYDYWGQGTQVTVSS obs_value="high polyreactivity"
sequence=QFQLVESAGGLFQAVGSHRLSCAASGRTFTQYAMGWYRQAPGKERELVAAISWRGGSTYYADSVKGRFTISRDNAKNTVYLQMNSLKPEDTAVYYCAKRYFRGYPLYDYWGQGTQVTVSS obs_value="high polyreactivity"
sequence=QVQLVESGGGIVQAGGSLRLSCAASGLISRVYAMGWSRQAPGKEWELVAAISSGGSTNYADSVKGRFTISRDNAKNTVYLQMNSLKPEETAGYYCAARGRRTGGHYNYWGQGTQETVSS obs_value="low polyreactivity"
sequence=QVQLVESGGGLVQAGGSLRLSCAASGSIFTDNAMGWYRQAPGKERALVAAISWIGDSTDYADSVKGRFTISRDNAKNTVYLQMNSLKPDDTAVYFCAADAKVVSPLYRANDIGMYYWGQGTQVTVSS obs_value="low polyreactivity"

Prompt line: Requested read-out: polyreactivity (PSR sort gate). Entry: `QVQLVESGGGLVQAGGSLRLSCAASGRTFGGNAMGWYRQAPGKERELVATIRSSSSTNYADSVKGRFTISRDNAKNTVYLQMNSLKPEDTAVYYCARRSQRGIYSMYYWGQGTQVTVSS`
Response line: low polyreactivity

Prompt line: Another sequence to look at: `QVQLVESGGGLVQAGGSLRLSCAASGITFYLNAMGWYRQAPGKDRELVADITVSGGSTYYADSVKGRFTISRDNAKNTVYLQMNSLKPEDTAVYYCAADLTISYSQEYYYWGQGTQVTVSS`
Response line: low polyreactivity

----------
- assay.procedure: yeast display, Sf9 membrane polyspecificity reagent, FACS + sequencing; frameworks hold sequencing errors
value.kind: polyreactivity (PSR sort gate)

For orientation, consider the following solved cases.
sequence=QVQLVESGGGLVQAGGSLRLSCAASGFTFYRYAMGWYRQAPGKERELVASISRNGGSTYYADTVKGRFTISRDTEKNTVYFLMNSLKPEDTAVYYCNTAFYPPTNFYWGQGTQVTVSS obs_value="high polyreactivity"
sequence=QVQLVESAGGLVQAGGSLRLSCAASGRIFGYYAMGWYRQAPGKERELVARISRGGSTYYADSVKGRFTISRDNAMNTVYLQMTSLKPEDTGVYYCAATRSGYTSYTDDSWGQGTQVTVSS obs_value="high polyreactivity"
sequence=QVQLVESGGGLVKAGGSLRLSCAASGNIFYINTMGWYRQAPGKERELVAAIDASYGSTYYADSVKGRFTISRDNAKNTVYLQMNSLKPEDTAVYYCATSRGYDSVYYFYTLWYYYWVQGTQVTVSS obs_value="low polyreactivity"
sequence=QVQLVESGGGLVQAGGSLRLSCAASGFIFVNYAMGWYRQAPGKERELVAAISRNGGRTYYADSVKGRFTISRDNAKNTVYCQMNSLTPEDTAVYYCTAELSGKRDYWGQGTQVTVSS obs_value="high polyreactivity"
sequence=QVQLVESGGGLVQAGGSLRLSCAASGFIFRYNAMGWYRQAPGKERELVARITSSGGTTYYADSVKGRFTISRDNAKNTVYLQMNSLKPEDTAVYYCAITWRKYYPPYYYWGQGTQVTVSS obs_value="high polyreactivity"
sequence=QVHLVESGGGLVKAGGSLRLSCAASGSIFTWYAMGWYRQEPGKERELVAAITWRGGSTYYADSVKGRFTISRDNAKNTVYLQMNSLKPEDTAVYYCAAAGRSGKSLLQYGYWGQGTQVTVSS obs_value="high polyreactivity"

Prompt line: Please give the measured polyreactivity (PSR sort gate) for this sequence: `QVQLVESGGGLVQAGGSLRLSCAASGFIFGQYALGGYRQAPGKERELVAVITSSGGRTYYADSVKGRFTISRDNAKNTVYLQMNSLKPEDTAVYYCAAPGYGLQVRGRYGYWGQGTQVTVSS`
Response line: high polyreactivity

Prompt line: Do the same for `QVQLVESGGGLVQAGGSHRLSCAASGFTFDFYAMGWYRQAPGKERELVAAISKNDGTTYYADSVKGRFTISRDNAKNTVYLLLNRLKPEDSAVYYCAAESGYPVYTYVSSGDYWGQGTQVTGSS` please
Response line: low polyreactivity

Prompt line: And then `QFQLVESGGGLVQAGGSLRLSCAASGRIFVLNAMGWYRQAPGKERELVAAISGSGSRTYYADSVKGRFTISRDNAKNTVYLQMNSLNPEDTAVYYCNNVSRRSEHTYDYWGQGTQVTVSS` , what is it?
Response line: high polyreactivity

Prompt line: Similarly, `QVQLVESGGGLVQAGGSLRLSCAASGGIFRLYGMGWYRQAPGKERELVAAIRQSGGRTYYADSVKGRFTISRDNAKNTVYLQMNSLKPEDTAVYYCAADLLYRSSGSARLDYDYWGQGTQVTVSS` ?
Response line: low polyreactivity
